B1: RTP4 (parent)
chain: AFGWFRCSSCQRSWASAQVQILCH

variants of: B1; experiment: protein stability index of a GFP-peptide fusion (GPS, HEK-293T) (PSI 1-6); higher = more stable; settings: c terminus: a fixed tail appended;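 also: lentivirally expressed fusions sorted by FACS into six bins by GFP to DsRed ratio, PSI derived from sequencing read proportions per bin multiplied by bin number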
Recorded protein stability index, one value per entry.
Reply with just the number.

V19C: 1.56

// below: protein stability index requested for another variant
Query: Provide one value: measured protein stability index of A15I
Result: 1.53
